Assay: In vitro antiviral activity against mice infected intracerebrally with Poliovirus type-2
Assay type: functional
Values of MIC strictly less than 0.01 µg/mL map to 1.0, and values of at least 0.01 µg/mL map to 0.0.

Example results:
Cc1cc(CCCCCOc2ccc(C3=NCCO3)cc2)on1 ... 1.0
Cc1cc(CCCCCCCOc2ccc(C3=NCC(C)O3)cc2)on1 (configuration not stated) ... 0.0
Cc1cc(CCCCCCCOc2ccc(C3=N[C@H](C)CO3)cc2)on1 ... 0.0
Cc1cc(CCCCOc2ccc(C3=NCCO3)cc2)on1 ... 0.0
CCOC(=O)c1ccc(OCCCCCCCc2cc(C)no2)cc1 ... 0.0

Task: In the record for Cc1cc(CCCCCCCOc2ccc(C3=NCCO3)cc2)on1 [DISOXARIL] , is MIC less than 0.01 µg/mL?
Output: 1.0

Task: In the record for Cc1cc(CCCCCCCOc2ccc(C3=NC(C)(C)CO3)cc2)on1 , is MIC less than 0.01 µg/mL?
Output: 0.0

* * *

This section presents molecules with their documented log10 MIC values.
Assay: In vitro antiviral activity against mice infected intracerebrally with Poliovirus type-2
Assay type: functional
Note the log scale: values are log10 of MIC expressed in µg/mL.

Cc1cc(CCCCCCCOc2ccc(C3=NC(C)CO3)cc2)on1 (stereo not given) ... -0.92
Cc1cc(CCCCCCCCOc2ccc(C3=NCCO3)cc2)on1 ... -2.00
Cc1cc(CCCCCCOc2ccc(C3=NCCO3)cc2)on1 ... -2.10
Cc1cc(CCCCCCCOc2ccc(C3=NCC(CO)O3)cc2)on1 (stereo not given) ... 0.41

// next entry
Task: Report log10 MIC for COc1ccc(OCCCCCCCc2cc(C)no2)c(Cl)c1 please.
Output: -1.30
